# Tested on: HL-60
# EXPERIMENT: NCI tumour cell line growth inhibition, 48 h
The source made the active and inactive calls. No stated cut-off is given here; in the data, active = GI50 up to about 1.1 µM and inactive = higher.
Each entry below carries its reported GI50.

{"columns": ["MOLECULE", "TGT", "GI50"],
 "data": [
  ["CO/C(=N\\N=C\\c1cccc(C(F)(F)F)c1)c1ccncc1", "HL-60", "2.83 µM (inactive)"],
  ["Cc1ccc(-n2c3nc(=O)n(C)c(=O)c-3nc3ccccc32)c(C)c1", "HL-60", "6.49 µM (inactive)"],
  ["CC1(C(O)c2ccccc2)CN(C(C)(C)C)C(=O)/C1=C\\Sc1ccccc1 (centres undefined)", "HL-60", "24.7 µM (inactive)"],
  ["CC(C)[C@@H]1CC[C@@H](C)C[C@H]1OC(=O)/C=C1/C2C=CC(O2)C1C(=O)O[C@@H]1C[C@H](C)CC[C@H]1C(C)C (some centres undefined)", "HL-60", "30.5 µM (inactive)"]
]}
